Test system: 5-AR type 1 and 2
measurement-description: Dutasteride co-treatment with T in human hepatocyte culture
run-conditions: p<0.01 for decreases
measured-quantity: Effect of dutasteride co-treatment on metabolite formation from T

{"compound": "C[C@]12CC[C@@H](O[C@@H]3O[C@H](C(=O)O)[C@@H](O)[C@H](O)[C@H]3O)C[C@@H]1CC[C@@H]1[C@@H]2CC[C@]2(C)C(=O)CC[C@@H]12 [AG, Androsterone glucuronide]", "endpoint-result": "significant decreases"}
{"compound": "C[C@]12CC[C@H]3[C@@H](CCC4=CC(=O)CC[C@@]43C)[C@@H]1CC[C@@H]2O[C@@H]1O[C@H](C(=O)O)[C@@H](O)[C@H](O)[C@H]1O [TG, Testosterone glucuronide]", "endpoint-result": "No significant changes"}
{"compound": "C[C@]12CC[C@H]3[C@@H](C[C@@H](O)C4=CC(=O)CC[C@@]43C)[C@@H]1CC[C@@H]2O [6β-OH-T, 6β-hydroxytestosterone]", "endpoint-result": "significant decreases"}
{"compound": "C[C@]12CCC(=O)C=C1CC[C@@H]1[C@@H]2CC[C@]2(C)C(=O)CC[C@@H]12 [AED, Androstenedione]", "endpoint-result": "No significant changes"}
{"compound": "C[C@]12CCC(=O)C[C@@H]1CC[C@@H]1[C@@H]2CC[C@]2(C)[C@@H](O)CC[C@@H]12 [DHT, 5α-Dihydrotestosterone]", "endpoint-result": "significant decreases"}

* * *

Each entry below carries its reported t½.
measurement-description: Oral testosterone pharmacokinetics and serum metabolite profile (LC-MS/MS) in men with acyline-induced experimental hypogonadism, with and without dutasteride
Type: in vivo, human
run-conditions: serum, T800 + D (800 mg oral T with dutasteride)
measured-quantity: t½ (h)

{"compound": "C[C@]12CC[C@@H](O[C@@H]3O[C@H](C(=O)O)[C@@H](O)[C@H](O)[C@H]3O)C[C@H]1CC[C@@H]1[C@@H]2CC[C@]2(C)C(=O)CC[C@@H]12 [EtioG, Etiocholanolone glucuronide]", "measured-quantity": "t½", "unit-of-measure": "h", "endpoint-result": 9.9}
{"compound": "C[C@]12CCC(=O)C[C@@H]1CC[C@@H]1[C@@H]2CC[C@]2(C)[C@@H](O)CC[C@@H]12 [DHT, 5α-Dihydrotestosterone]", "measured-quantity": "t½", "unit-of-measure": "h", "endpoint-result": 17.9}
{"compound": "C[C@]12CCC(=O)C=C1CC[C@@H]1[C@@H]2CC[C@]2(C)C(=O)CC[C@@H]12", "measured-quantity": "t½", "unit-of-measure": "h", "endpoint-result": 5.2}
{"compound": "C[C@]12CC[C@H]3[C@@H](CCC4=CC(=O)CC[C@@]43C)[C@@H]1CC[C@@H]2O [T, Testosterone, reference compound]", "measured-quantity": "t½", "unit-of-measure": "h", "endpoint-result": 5.7}
{"compound": "C[C@]12CC[C@@H](O[C@@H]3O[C@H](C(=O)O)[C@@H](O)[C@H](O)[C@H]3O)C[C@@H]1CC[C@@H]1[C@@H]2CC[C@]2(C)C(=O)CC[C@@H]12 [AG, Androsterone glucuronide]", "measured-quantity": "t½", "unit-of-measure": "h", "endpoint-result": 6.3}
{"compound": "C[C@]12CC[C@H]3[C@@H](CCC4=CC(=O)CC[C@@]43C)[C@@H]1CC[C@@H]2O[C@@H]1O[C@H](C(=O)O)[C@@H](O)[C@H](O)[C@H]1O [TG, Testosterone glucuronide]", "measured-quantity": "t½", "unit-of-measure": "h", "endpoint-result": 2.7}

* * *

Each entry below carries its reported Absolute level in pooled serum, fold of baseline eugonadal state.
measurement-description: Oral testosterone pharmacokinetics and serum metabolite profile (LC-MS/MS) in men with acyline-induced experimental hypogonadism, with and without dutasteride
Format: in vivo, human
run-conditions: T200
measured-quantity: Absolute level in pooled serum, fold of baseline eugonadal state

{"compound": "C[C@]12CC[C@@H](O[C@@H]3O[C@H](C(=O)O)[C@@H](O)[C@H](O)[C@H]3O)C[C@H]1CC[C@@H]1[C@@H]2CC[C@]2(C)C(=O)CC[C@@H]12 [EtioG, Etiocholanolone glucuronide]", "endpoint-result": "13 fold"}
{"compound": "C[C@]12CC[C@@H](O[C@@H]3O[C@H](C(=O)O)[C@@H](O)[C@H](O)[C@H]3O)C[C@@H]1CC[C@@H]1[C@@H]2CC[C@]2(C)C(=O)CC[C@@H]12 [AG, Androsterone glucuronide]", "endpoint-result": "9.5 fold"}
{"compound": "C[C@]12CCC(=O)C=C1CC[C@@H]1[C@@H]2CC[C@]2(C)C(=O)CC[C@@H]12", "endpoint-result": "2.3 fold"}
{"compound": "C[C@]12CCC(=O)C[C@@H]1CC[C@@H]1[C@@H]2CC[C@]2(C)[C@@H](O[C@@H]3O[C@H](C(=O)O)[C@@H](O)[C@H](O)[C@H]3O)CC[C@@H]12 [DHTG, DHT-glucuronide]", "endpoint-result": "7.5 fold"}
{"compound": "C[C@]12CCC(=O)C[C@@H]1CC[C@@H]1[C@@H]2CC[C@]2(C)[C@@H](O)CC[C@@H]12 [DHT, 5α-Dihydrotestosterone]", "endpoint-result": "0.6 fold"}
{"compound": "C[C@]12CC[C@H]3[C@@H](CCC4=CC(=O)CC[C@@]43C)[C@@H]1CC[C@@H]2O[C@@H]1O[C@H](C(=O)O)[C@@H](O)[C@H](O)[C@H]1O [TG, Testosterone glucuronide]", "endpoint-result": "78 fold"}

* * *

measurement-description: Oral testosterone pharmacokinetics and serum metabolite profile (LC-MS/MS) in men with acyline-induced experimental hypogonadism, with and without dutasteride
Type: in vivo, human
run-conditions: T200
measured-quantity: Average serum AUC0-24 h (nmol/L-h)

{"molecule": "C[C@]12CC[C@@H](O[C@@H]3O[C@H](C(=O)O)[C@@H](O)[C@H](O)[C@H]3O)C[C@H]1CC[C@@H]1[C@@H]2CC[C@]2(C)C(=O)CC[C@@H]12 [EtioG, Etiocholanolone glucuronide]", "measured-quantity": "Average serum AUC0-24 h", "unit-of-measure": "nmol/L-h", "endpoint-result": 2160}
{"molecule": "C[C@]12CCC(=O)C[C@@H]1CC[C@@H]1[C@@H]2CC[C@]2(C)[C@@H](O)CC[C@@H]12 [DHT, 5α-Dihydrotestosterone]", "measured-quantity": "Average serum AUC0-24 h", "unit-of-measure": "nmol/L-h", "endpoint-result": 26.5}
{"molecule": "C[C@]12CC[C@H]3[C@@H](CCC4=CC(=O)CC[C@@]43C)[C@@H]1CC[C@@H]2O[C@@H]1O[C@H](C(=O)O)[C@@H](O)[C@H](O)[C@H]1O [TG, Testosterone glucuronide]", "measured-quantity": "Average serum AUC0-24 h", "unit-of-measure": "nmol/L-h", "endpoint-result": 857.2}
{"molecule": "C[C@]12CCC(=O)C=C1CC[C@@H]1[C@@H]2CC[C@]2(C)C(=O)CC[C@@H]12", "measured-quantity": "Average serum AUC0-24 h", "unit-of-measure": "nmol/L-h", "endpoint-result": 373.7}

* * *

measurement-description: Oral testosterone pharmacokinetics and serum metabolite profile (LC-MS/MS) in men with acyline-induced experimental hypogonadism, with and without dutasteride
Type: in vivo, human
run-conditions: male, human, serum, oral, T200 + D

{"molecule": "C[C@]12CC[C@H]3[C@@H](CCC4=CC(=O)CC[C@@]43C)[C@@H]1CC[C@@H]2O [T, Testosterone, reference compound]", "CL/F": "120000 mL/min"}

* * *

Each entry below carries its reported Absolute level in pooled serum, fold of baseline eugonadal state.
measurement-description: Oral testosterone pharmacokinetics and serum metabolite profile (LC-MS/MS) in men with acyline-induced experimental hypogonadism, with and without dutasteride
Type: in vivo, human
run-conditions: T800
measured-quantity: Absolute level in pooled serum, fold of baseline eugonadal state (fold)

{"compound": "C[C@]12CC[C@@H](O[C@@H]3O[C@H](C(=O)O)[C@@H](O)[C@H](O)[C@H]3O)C[C@H]1CC[C@@H]1[C@@H]2CC[C@]2(C)C(=O)CC[C@@H]12 [EtioG, Etiocholanolone glucuronide]", "endpoint-result": 39.5}
{"compound": "C[C@]12CC[C@@H](O[C@@H]3O[C@H](C(=O)O)[C@@H](O)[C@H](O)[C@H]3O)C[C@@H]1CC[C@@H]1[C@@H]2CC[C@]2(C)C(=O)CC[C@@H]12 [AG, Androsterone glucuronide]", "endpoint-result": 29.7}
{"compound": "C[C@]12CCC(=O)C[C@@H]1CC[C@@H]1[C@@H]2CC[C@]2(C)[C@@H](O)CC[C@@H]12 [DHT, 5α-Dihydrotestosterone]", "endpoint-result": 2.2}
{"compound": "C[C@]12CC[C@H]3[C@@H](CCC4=CC(=O)CC[C@@]43C)[C@@H]1CC[C@@H]2O[C@@H]1O[C@H](C(=O)O)[C@@H](O)[C@H](O)[C@H]1O [TG, Testosterone glucuronide]", "endpoint-result": 277}
{"compound": "C[C@]12CCC(=O)C[C@@H]1CC[C@@H]1[C@@H]2CC[C@]2(C)[C@@H](O[C@@H]3O[C@H](C(=O)O)[C@@H](O)[C@H](O)[C@H]3O)CC[C@@H]12 [DHTG, DHT-glucuronide]", "endpoint-result": 40.6}
{"compound": "C[C@]12CCC(=O)C=C1CC[C@@H]1[C@@H]2CC[C@]2(C)C(=O)CC[C@@H]12 [AED, Androstenedione]", "endpoint-result": 14.9}
